- PROCEDURE_TEXT: NCI Yeast Anticancer Drug Screen. Data for the mec2-1 strain (AID 157)
- ASSAY_SETUP: S. cerevisiae mec2-1 strain, at 50.0 µM
This is part of a sample that, as a whole, favours compounds with a hit. Of some 79,000 tested, about 15% had one in any assay. The source made the active and inactive calls. Rule as the data show it: active = growth inhibition above about 70%; inactive = the rest.
Please answer using one outcome listed in YES (active), NO (inactive)

CC(=O)c1nc2ccccc2n1C(C)C(=O)c1ccccc1 (stereo not drawn) :: NO

Outcome? CC1CCCN(c2cc(N(C)C)c([N+](=O)[O-])cc2F)C1 (stereo not drawn)
NO

Outcome? COC12C(COC(N)=O)C3=C(C(=O)C(C)=C(N)C3=O)N1CC1C2N1C(=O)/C=C/c1ccccc1 (stereo not drawn)
YES

Outcome? O=[N+]([O-])c1ccc(S(=O)/N=C/c2ccccc2)c([N+](=O)[O-])c1 (stereo not drawn)
NO

Outcome? `O=C(O)c1ccccc1-c1c2cc([N+](=O)[O-])c(=O)c(Br)c-2oc2c(Br)c(O)c([N+](=O)[O-])cc12`
YES

Outcome? C=CCCCCO/N=C/c1c2c(O)c3c(O)c(C)c4c(c3c1O)C(=O)C(C)(O/C=C/C(OC)C(C)C(OC(C)=O)C(C)C(O)C(C)C(O)C(C)/C=C/C=C(\C)C(=O)N2)O4 (stereo not drawn)
YES

Outcome? COc1nc(NC2OC(CO)C(O)C(O)C2O)c(Cl)c(=O)[nH]1 (stereo not drawn)
NO

Outcome? `O=C(c1ccccc1)C(C(=O)c1ccccc1)c1ccc2ccccc2n1`
NO

Outcome? CCCCNCCC1(c2ccccc2)C(=O)Oc2ccccc21 (stereo not drawn)
NO

Outcome? CCC(Sc1ccccc1[N+](=O)[O-])[N+](=O)[O-] (stereo not drawn)
YES

Outcome? `Cc1ccc(O)c(C(c2ccc([N+](=O)[O-])cc2)c2cc(C)ccc2O)c1`
YES

Outcome? COc1ccc(C(=O)C(c2ccc(OC)cc2)C2(O)C(=O)Nc3c(Cl)cc(Cl)cc32)cc1 (stereo not drawn)
YES

Outcome? `Cc1cc(Cl)ccc1Nc1sc(C(=O)c2cc3cc(Cl)ccc3o2)c(N)c1C#N`
NO

Outcome? C=C1CC2(CCCC3(CC(=C)C(=O)O3)C2(C)C)OC1=O (stereo not drawn)
NO

Outcome? `CC(=O)N(C)c1cc(NCc2ccccc2)ccc1OCc1ccccc1`
YES

Outcome? `O=[N+]([O-])c1cnc(Sc2cncc[n+]2[O-])s1`
YES

Outcome? `CC[N+](C)(CC)CCCOC(=O)c1ccccc1Oc1ccc(C)cc1`
NO

###

- PROCEDURE_TEXT: NCI Yeast Anticancer Drug Screen. Data for the bub3 strain (AID 167)
- ASSAY_SETUP: S. cerevisiae bub3 mutant strain, at 5.0 µM (retest, dose inferred, filed as 0.5), stronger effect = higher value
- Protocol: Growth inhibition of yeast strains with defined genetic alterations is measured as a screen for potential anti-cancer activity. Selected strains with alterations in DNA damage repair or cell cycle control were exposed to compounds and growth inhibition was measured relative to vehicle treated controls. The strain used in this assay is bub3
This is part of a sample that, as a whole, favours compounds with a hit. Of some 79,000 tested, about 15% had one in any assay.
This section presents compounds with their documented growth inhibition values.
Answer in %, number only, no unit symbol.

Worked cases, growth inhibition given:
C/C=C/C=N/N(c1nnc(-c2ccccc2)c(-c2ccccc2)n1)S(=O)(=O)c1ccc(C)cc1 :: 52
CCN1C(Cl)=NS(=O)(=O)c2ccccc21 :: 19
CC1(C)CC(N(C(=O)/C=C/c2ccc([N+](=O)[O-])o2)C2CCCCC2)CC(C)(C)N1 :: -4
COc1cccc(NC(=S)NC2CC(C)CC(C)(C)C2)c1 (stereo unspecified) :: 8

Assign growth inhibition to the following record: `CN(C)CCNc1ccc2nnn3c4ccc(O)cc4c(=O)c1c23`
18

Assign growth inhibition to the following record: `O=c1cc(/C=C/c2ccccc2)cccc1O`
97
